assayed.system: 14-3-3γ (Homo sapiens)
Construct: made in house; host or cells: E. coli NiCo21 (DE3)
test.description: Fluorescence anisotropy (FA) binary binding study: 14-3-3 titrated to fluorescein-labelled peptide
particulars: Table S2; from FA KD; replicate 1
Where a SMILES comes first, the peptide text is derived from it. [ ]: non-standard residue; d: D form. The star is where a group is joined. ξ: configuration not given here. FITC = O=C1OC2(c3ccc(O)cc3Oc3cc(O)ccc32)c2ccc(NC(=S)*)cc21; Phe(4-NO2) = N[C@@H](Cc1ccc([N+](=O)[O-])cc1)C(=O)O; ξAla(4-thiazolyl) = NC(Cc1cscn1)C(=O)O; pS = N[C@@H](COP(=O)(O)O)C(=O)O; β3hS = N[C@@H](CO)CC(=O)O; βAla = NCCC(=O)O
recorded.metric: ΔG

In: Recorded ΔG for C[C@H](NC(=O)[C@H](CCCCN)NC(=O)[C@H](Cc1ccc([N+](=O)[O-])cc1)NC(=O)CCNC(=O)C[C@H](CO)NC(=O)[C@H](Cc1ccc([N+](=O)[O-])cc1)NC(=O)[C@H](COP(=O)(O)O)NC(=O)C(Cc1cscn1)NC(=O)[C@@H](N)Cc1ccc([N+](=O)[O-])cc1)C(=O)N[C@@H](CCCCNC(=S)Nc1ccc2c(c1)C(=O)OC21c2ccc(O)cc2Oc2cc(O)ccc21)C(N)=O (stereo partly drawn) [2b] (H-[Phe(4-NO2)][ξAla(4-thiazolyl)][pS][Phe(4-NO2)][β3hS][βAla][Phe(4-NO2)]KAK(FITC)-NH2) , please?
Out: -9,53 kcal/mol

* * *

assayed.system: 14-3-3γ (Homo sapiens, UniProt P61981)
Construct: made in house; host or cells: E. coli NiCo21 (DE3)
Sequence (P61981 1-247): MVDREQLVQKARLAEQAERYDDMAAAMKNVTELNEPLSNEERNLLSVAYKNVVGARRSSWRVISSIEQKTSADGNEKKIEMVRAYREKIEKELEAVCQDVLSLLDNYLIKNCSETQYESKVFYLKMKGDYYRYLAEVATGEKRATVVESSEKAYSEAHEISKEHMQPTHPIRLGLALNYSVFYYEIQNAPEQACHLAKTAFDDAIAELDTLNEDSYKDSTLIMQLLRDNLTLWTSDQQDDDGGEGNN
test.description: Isothermal titration calorimetry (ITC) of 14-3-3 binding to peptide
particulars: Table S5; ITC, 25 °C; replicate 2
Method: 14-3-3γ protein expression (FP/ITC experiments) A pPROEX HTb expression vector encoding the human 14-3-3 protein gamma (14-3-3γ) with an N-terminal his6-tag was transformed by heat shock into NiCo21 (DE3) competent cells. […] 0 ms; gain: optimal; and Z-position: calculated from well). […] Measurements were performed directly after plate preparation, using a Tecan Infinite F500 plate reader at room temperature (lex: 485 ± 20 nm; lem: 535 ± 25 nm; mirror: Dichroic 510; flashes: 20; integration […]
Where a SMILES comes first, the peptide text is derived from it. [ ]: non-standard residue; d: D form. ξ: configuration not given here. Phe(4-NO2) = N[C@@H](Cc1ccc([N+](=O)[O-])cc1)C(=O)O; ξAla(4-thiazolyl) = NC(Cc1cscn1)C(=O)O; pS = N[C@@H](COP(=O)(O)O)C(=O)O; β3hS = N[C@@H](CO)CC(=O)O; Nva = CCC[C@H](N)C(=O)O; βAla = NCCC(=O)O
recorded.metric: ΔG

In: Kindly state the measured ΔG obtained for CCC[C@H](NC(=O)[C@H](N)CCCCN)C(=O)N[C@@H](Cc1ccc([N+](=O)[O-])cc1)C(=O)NC(Cc1cscn1)C(=O)N[C@@H](COP(=O)(O)O)C(=O)N[C@@H](Cc1ccccc1)C(=O)N[C@@H](CO)CC(=O)NCCC(=O)N[C@@H](Cc1ccc([N+](=O)[O-])cc1)C(=O)N[C@@H](CCCCN)C(N)=O (stereo partly drawn) [4b] (H-[dK][Nva][Phe(4-NO2)][ξAla(4-thiazolyl)][pS]F[β3hS][βAla][Phe(4-NO2)]K-NH2; N-terminus and C-terminus assumed) with 14-3-3γ (Homo sapiens, UniProt P61981).
Out: -10.1 kcal/mol

* * *

assayed.system: 14-3-3γ (Homo sapiens)
Construct: made in house; host or cells: E. coli NiCo21 (DE3)
test.description: Fluorescence anisotropy (FA) binary binding study: 14-3-3 titrated to fluorescein-labelled peptide
particulars: Table S3; from FA KD; replicate 2
Where a SMILES comes first, the peptide text is derived from it. [ ]: non-standard residue; d: D form. The star is where a group is joined. ξ: configuration not given here. FITC = O=C1OC2(c3ccc(O)cc3Oc3cc(O)ccc32)c2ccc(NC(=S)*)cc21; Phe(4-NO2) = N[C@@H](Cc1ccc([N+](=O)[O-])cc1)C(=O)O; ξAla(4-thiazolyl) = NC(Cc1cscn1)C(=O)O; pS = N[C@@H](COP(=O)(O)O)C(=O)O; Nva = CCC[C@H](N)C(=O)O; AEA = NCCOCC(=O)O
recorded.metric: ΔG

In: Recorded ΔG for CCC[C@H](NC(=O)[C@@H](CCCCN)NC(=O)COCCNC(=S)Nc1ccc2c(c1)C(=O)OC21c2ccc(O)cc2Oc2cc(O)ccc21)C(=O)N[C@@H](Cc1ccc([N+](=O)[O-])cc1)C(=O)NC(Cc1cscn1)C(=O)N[C@@H](COP(=O)(O)O)C(N)=O (stereo partly shown) [2i] ({FITC-AEA}-[dK][Nva][Phe(4-NO2)][ξAla(4-thiazolyl)][pS]-NH2) , please?
Out: -6,25 kcal/mol

* * *

assayed.system: 14-3-3γ (Homo sapiens, UniProt P61981)
Construct: made in house; host or cells: E. coli NiCo21 (DE3)
Sequence (P61981 1-247): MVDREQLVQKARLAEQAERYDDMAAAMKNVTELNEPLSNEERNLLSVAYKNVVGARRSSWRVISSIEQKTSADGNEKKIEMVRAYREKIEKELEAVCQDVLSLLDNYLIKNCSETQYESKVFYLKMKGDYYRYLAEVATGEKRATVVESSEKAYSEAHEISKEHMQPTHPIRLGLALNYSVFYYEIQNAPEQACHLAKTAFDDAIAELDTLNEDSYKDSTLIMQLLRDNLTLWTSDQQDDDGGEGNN
test.description: Fluorescence anisotropy (FA) binary binding study: 14-3-3 titrated to fluorescein-labelled peptide
particulars: Table S3; calculated from FA KD; mean of n = 3
Where a SMILES comes first, the peptide text is derived from it. [ ]: non-standard residue; d: D form. The star is where a group is joined. ξ: configuration not given here. FITC = O=C1OC2(c3ccc(O)cc3Oc3cc(O)ccc32)c2ccc(NC(=S)*)cc21; Phe(4-NO2) = N[C@@H](Cc1ccc([N+](=O)[O-])cc1)C(=O)O; ξAla(4-thiazolyl) = NC(Cc1cscn1)C(=O)O; pS = N[C@@H](COP(=O)(O)O)C(=O)O; β3hS = N[C@@H](CO)CC(=O)O; Nva = CCC[C@H](N)C(=O)O; AEA = NCCOCC(=O)O
Listing: ΔG of selected compounds

{"compound": "CCC[C@H](NC(=O)[C@@H](CCCCN)NC(=O)COCCNC(=S)Nc1ccc2c(c1)C(=O)OC21c2ccc(O)cc2Oc2cc(O)ccc21)C(=O)N[C@@H](Cc1ccc([N+](=O)[O-])cc1)C(=O)NC(Cc1cscn1)C(=O)N[C@@H](COP(=O)(O)O)C(N)=O (some centres unmarked) [2i] ({FITC-AEA}-[dK][Nva][Phe(4-NO2)][ξAla(4-thiazolyl)][pS]-NH2)", "ΔG": "-6,22 kcal/mol"}

In the following, a different compound is considered.
In: Recorded ΔG for CCC[C@H](NC(=O)[C@@H](CCCCN)NC(=O)COCCNC(=S)Nc1ccc2c(c1)C(=O)OC21c2ccc(O)cc2Oc2cc(O)ccc21)C(=O)N[C@@H](Cc1ccc([N+](=O)[O-])cc1)C(=O)NC(Cc1cscn1)C(=O)N[C@@H](COP(=O)(O)O)C(=O)N[C@@H](Cc1ccc([N+](=O)[O-])cc1)C(=O)N[C@@H](CO)CC(N)=O (stereo partly drawn) [2g] ({FITC-AEA}-[dK][Nva][Phe(4-NO2)][ξAla(4-thiazolyl)][pS][Phe(4-NO2)][β3hS]-NH2) , please?
Out: -7,67 kcal/mol

* * *

Listing: ΔΔG to 1 of selected molecules
assayed.system: 14-3-3γ (Homo sapiens, UniProt P61981)
Construct: made in house; host or cells: E. coli NiCo21 (DE3)
test.description: Fluorescence anisotropy (FA) binary binding study: 14-3-3 titrated to fluorescein-labelled peptide
particulars: Table S4; ΔG of peptide minus ΔG of 1, FA; mean of n = 3
Where a SMILES comes first, the peptide text is derived from it. [ ]: non-standard residue; d: D form. ξ: configuration not given here. Phe(4-NO2) = N[C@@H](Cc1ccc([N+](=O)[O-])cc1)C(=O)O; ξAla(4-thiazolyl) = NC(Cc1cscn1)C(=O)O; pS = N[C@@H](COP(=O)(O)O)C(=O)O; β3hS = N[C@@H](CO)CC(=O)O; Nva = CCC[C@H](N)C(=O)O; βAla = NCCC(=O)O
# number then unit; no other words

{"molecule": "CCC[C@H](NC(=O)[C@H](N)CCCCN)C(=O)N[C@@H](Cc1ccc([N+](=O)[O-])cc1)C(=O)N[C@@H](C)C(=O)N[C@@H](COP(=O)(O)O)C(=O)N[C@@H](Cc1ccc([N+](=O)[O-])cc1)C(=O)N[C@@H](CO)CC(=O)NCCC(=O)N[C@@H](Cc1ccc([N+](=O)[O-])cc1)C(=O)N[C@@H](CCCCN)C(N)=O [3a] (H-[dK][Nva][Phe(4-NO2)]A[pS][Phe(4-NO2)][β3hS][βAla][Phe(4-NO2)]K-NH2; N-terminus and C-terminus assumed)", "val": "0.0 kcal/mol"}

In: Recorded ΔΔG to 1 for CCC[C@H](NC(=O)[C@H](N)CCCCN)C(=O)N[C@@H](Cc1ccc([N+](=O)[O-])cc1)C(=O)NC(Cc1cscn1)C(=O)N[C@@H](COP(=O)(O)O)C(=O)N[C@@H](Cc1ccc([N+](=O)[O-])cc1)C(=O)N[C@@H](CO)CC(=O)NCCC(=O)N[C@@H](Cc1ccc(O)cc1)C(=O)N[C@@H](CCCCN)C(N)=O (stereo partly drawn) [5a] (H-[dK][Nva][Phe(4-NO2)][ξAla(4-thiazolyl)][pS][Phe(4-NO2)][β3hS][βAla]YK-NH2; N-terminus and C-terminus assumed) , please?
Out: 1.9 kcal/mol
